# Test system: Mycobacterium avium
# run_description: Antibacterial activity against Mycobacterium avium ATCC 25291 assessed as bacterial growth inhibition incubated for 2 to 3 weeks by resazurin dye based assay
# Type: functional
# condition_description: time 2-3 weeks
metric: MIC

{"sample_smiles": "Fc1ccc(COc2cccc(CNCc3cccnc3)c2)cc1", "endpoint_value": "> 62.5 µM"}
{"sample_smiles": "c1ccc(COc2ccccc2CNCc2ccncc2)cc1", "endpoint_value": "> 62.5 µM"}
{"sample_smiles": "Brc1ccc(COc2ccccc2CNCc2cccnc2)cc1", "endpoint_value": "> 62.5 µM"}
{"sample_smiles": "c1ccc(COc2ccc(CNCc3ccncc3)cc2)cc1", "endpoint_value": "2 µM"}
{"sample_smiles": "CC(C)c1ccc(COc2ccc(CNCc3ccccc3)cc2)cc1", "endpoint_value": "15.6 µM"}
{"sample_smiles": "Brc1ccc(COc2ccccc2CNCc2ccccc2)cc1", "endpoint_value": "> 62.5 µM"}
{"sample_smiles": "c1ccc(COc2ccccc2CNCc2cccnc2)cc1", "endpoint_value": "> 62.5 µM"}
{"sample_smiles": "Clc1ccc(COc2cccc(CNCc3ccncc3)c2)cc1", "endpoint_value": "> 62.5 µM"}
{"sample_smiles": "Clc1ccc(COc2ccccc2CNCc2cccnc2)cc1", "endpoint_value": "> 62.5 µM"}
{"sample_smiles": "CC(C)(C)c1ccc(COc2ccc(CNCc3ccccc3)cc2)cc1", "endpoint_value": "31.3 µM"}
{"sample_smiles": "Clc1cccc(COc2ccccc2CNCc2ccncc2)c1", "endpoint_value": "> 62.5 µM"}
{"sample_smiles": "Cc1ccc(COc2ccc(CNCc3ccccc3)cc2)cc1", "endpoint_value": "15.6 µM"}
